target: DNA polymerase beta (Rattus norvegicus) (UniProt P06766); assay: Activity of rat DNA polymerase beta using variable levels of [3H]TTP substrate by Lineweaver-Burke plot
Readout: Kii (µM)

CC1(C)[C@H](O)CC[C@]2(C)[C@H]3CC=C4[C@@H]5C[C@](C)(C(=O)O)CC[C@]5(C)CC[C@@]4(C)[C@]3(C)CC[C@@H]12
24

1: C=C(C)[C@@H]1CC[C@]2(C)[C@H](CC=C3[C@@H]4C[C@@](C)(C(=O)O)CC[C@]4(C)CC[C@]32C)[C@@]1(C)CCC(=O)O
2: CO/N=C1/CC[C@]2(C)[C@H]3CC=C4[C@@H]5C[C@](C)(C(=O)O)CC[C@]5(C)CC[C@@]4(C)[C@]3(C)CC[C@H]2C1(C)C
3: CC1(C)/C(=N\OCc2ccccc2)CC[C@]2(C)[C@H]3CC=C4[C@@H]5C[C@](C)(C(=O)O)CC[C@]5(C)CC[C@@]4(C)[C@]3(C)CC[C@@H]12
Ask: Rank descending by Kii. Provide the labels, sequenced as the question asks.
Reply: 2, 3, 1
(2: 35 µM, 3: 22 µM, 1: 11 µM)
